Molecular target: T1, human Protein S (human, UniProt P07225 42-676)
T1 construct: also called ProS; ProS1
T1 sequence: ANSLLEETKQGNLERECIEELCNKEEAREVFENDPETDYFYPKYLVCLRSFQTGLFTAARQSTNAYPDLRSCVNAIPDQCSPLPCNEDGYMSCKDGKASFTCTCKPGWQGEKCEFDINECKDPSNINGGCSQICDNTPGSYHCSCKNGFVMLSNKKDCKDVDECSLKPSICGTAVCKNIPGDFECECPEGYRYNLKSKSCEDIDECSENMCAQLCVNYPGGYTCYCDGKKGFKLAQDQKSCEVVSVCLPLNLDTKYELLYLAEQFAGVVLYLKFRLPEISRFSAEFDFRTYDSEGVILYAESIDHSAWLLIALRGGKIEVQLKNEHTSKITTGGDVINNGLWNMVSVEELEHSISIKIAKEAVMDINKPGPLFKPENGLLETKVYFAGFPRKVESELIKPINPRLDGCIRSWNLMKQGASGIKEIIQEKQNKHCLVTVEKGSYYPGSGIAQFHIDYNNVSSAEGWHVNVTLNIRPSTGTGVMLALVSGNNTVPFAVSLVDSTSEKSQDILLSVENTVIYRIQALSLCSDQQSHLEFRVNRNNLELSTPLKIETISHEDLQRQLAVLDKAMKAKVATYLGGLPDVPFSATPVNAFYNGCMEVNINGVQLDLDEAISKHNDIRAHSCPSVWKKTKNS
Assay: BLI Octet; antibody on anti-human Fc probe; Protein S 7.81-500 nM; 4 mM CaCl2
Please use 1 for Kd under 400 pM and 0 for everything else, ties included.

Look over these answered cases.
Antibody 4 (antibody, V domains shown, Same variable regions as Antibody 16) VH: QVQLVESGGGVVQPGRSLRLSCAASGFTFSTYGFHWVRQPPGKGLEWVAVIYYDGINKYYADSVKGRFTISRDNSKNTLFLQMNSLRAEDTAVYYCAESDLDYWGQGTLVTVSS VL: EIVLTQSPATLSLSPGERATLSCRASQSVSIYLAWYQQKPGQAPRLLIYDASNRATGIPARFSGSGSGTDFTLTISSLEPEDFAVYYCQQRSNWPLTFGPGTKVDIK | 0
Antibody 27 (antibody, V domains shown, Same variable regions as Antibody 33) VH: QVQLQQSGPGLVKPSQTLSLTCAISGDSVSNNNAAWNWIRQSPSRGLEWLGGTYYRSKWYNDYAVSVKSRIIINPVTSKNQFSLQLNSVTPEDTAVYYCARGSSWYRFFDYWGQGTLVTVSS VL: EIVLTQSPGTLSLSPGERATLSCRASQSVGSSYLAWYQQKPGQAPRLLISGASGRATGIPDRFSGSGSGTDFTLTISRLEPEDFTVYYCQQYGSSPYTFGQGTKLEIK | 0
Antibody 28 (antibody, V domains shown) VH: QVQLQQSGTELVRPGTSVKMSCKAAGYTFTNHWIGWVKQRPGHGLEWIGDIYPGGGYTNYNEKFKGKASLTADTSSTTAYMQLSSLTSEDSAIYYCSRFGDQNWAWFAYWGQGTLVTVSA VL: DIQMNQSPSSLSASLGDTITITCRASQNIHMWLSWYQQKPGNIPKLLIFKTSNLHTGVPSRFSGSGSGTDFTLTISSLQPEDIATYYCLQGQSYPFTFGGGTKLEIK | 0
Antibody 3 (antibody, V domains shown, Same variable regions as Antibody 15) VH: EVQLVESGGGLVQPGRSLRLSCAASGFTFDDYAMHWVRQAPGKGLEWVSGITWNSGNIGYADSVKGRFTISRDNAKNSLYLHMNSLRIEDTAFYYCAKGRAVSDTFDIWGQGTMVTVSS VL: SYELNQPPSVSVSPGQTASITCSGDKLGDKYASWYQQKPGQSPVVAIYQNSKRPSGIPERFSASNSGNTATLTISGTQALDEADYYCQAWDSSTWVFGGGTKLTVL | 1
Antibody 1 (antibody, V domains shown, Same variable regions as Antibody 13) VH: QVQLVQSGAEVKKPGSSVKVSCKVSGGTFSSYSISWVRQAPGQGLEWMGGIIPIFGTTNYAQKFQGRVTITADESTSTAYMDLSSLKSEDTAMYYCEGGRVGADFDYWGQGTLVTVSS VL: SSDLTQGPAVSVALGQTVRITCQGDSLRNYYASWYQQKPGQAPVPVIYGKNDRPSGIPDRFSGSISGNTASLTITGAQAEDEAHYYCNSRDSSGNHVVFGGGTKLTVL | 1
Antibody 30 (antibody, V domains shown, Same variable regions as Antibody 36) VH: EVQLVESGGGLVKPGGSLRLSCAASGFTFSSYNMNWVRQAPGRGLDWVSSISSSSSYIYYADSVKGRFTISRDNAKNSLYLQMNTLRAEDTAVYYCARDEEWELLTGFDYWGQGTLVTVSS VL: DIQMTQSPSSLSASVGDRVTITCRASQGINNYLAWFQQKPGKAPKSLIYAASNLQSGVPLKFSGSGSGTDFTLTISSLQPEDFATYYCQQYNSYPITFGQGTRLEIK | 0
Antibody 25 (antibody, V domains shown, Same variable regions as Antibody 31) VH: QVQLQESGPGLVKPSETLSLTCTVSGGSISGNYWSWIRQPPGKGLEWIGYIYYSGSTNYNPSLKSRVTISVDTSKNQFSLKLSSVTAADTAVYYCARDLDYFTWGAYSDWYFDLWGRGTLVTVSS VL: DIQMTQSPSSLSASVGDRVTITCRASQSISTFLNWYQQKPGKAPKLLIYATSSLRSGVPSRFSGSGSGTDFTLTISSLQPEDFAIYYCQQSYSTPRTFGQGTQVEIK | 1
Antibody 39 (antibody, V domains shown, Same variable regions as Antibody 40) VH: EVQLVESGGGLVQPGGSLRLSCAASGFTFSSYSMNWVRQAPGKGLEWVAYISSSTRTIFYADSVKGRFTISRDNAKNSLYLQMNSLRDEDTAFYYCARERSAFDYWGQGTLVTVSS VL: SYVLTQPPSVSVAPGQTARITCGGDNIGGKSVHWYQQKPGQAPVMVVYDDSDRPSGIPERFAGSNSGNTATLAISRVEAGDEADYYCQVWEITSDHPAFGGGTRLTVL | 1

Note: attention shifts to another entry.
Prompt: I'd appreciate it if you could check whether Antibody 41 (antibody, V domains shown, Same variable regions as Antibody 42) VH: QVQLVQSGSEVKKPGASVKVSCKASGYTFTNYYIHWVRQAPGQGLEWMGIITPSGGTTSYAQKFQGRVTMTRDTSTNTVYMGLSSLRSEDTAMYYCARAGVQLDRRGWFDPWGQGTLVTVSS VL: SYELTQPPSVSVSPGQTASITCSGDKLGDKYVFWYQQKPGQSPVLVIYQDSKRPSGIPERFSGSNSGNTATLTISGTQTMDEADYYCQAWDSSTVGFGGGTKLAVL has Kd smaller than 400 pM.
Response: 0
